- target_of_assay: Calmodulin-1 (Homo sapiens) (UniProt P0DP23)
- method_description: calcium-bound CALM1 binders on microarrays, profiling panel, artefact control for SMM control-protein annotation, biochemical, small-molecule microarray, Cy5-labelled CALM1, plus calcium (AID 1112);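 also: score merges spot fluorescence with signal to noise from triplicate slides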
- condition_set: Cy5-CALM1 binding fluorescence, higher = more signal
Please use yes (1) whenever composite z-score is not below 0.002, and no (0) whenever it is.

Q: // inclusive: composite z-score at least 0.002? input: NC(=O)N1C(=O)C2C(C1=O)C1C=C(CCCO)C2C(c2cccs2)N1Cc1cc2c(cc1Br)OCO2 (stereo unspecified)
A: yes (1)

Q: Would you mind doing COc1ccc([Si](C)(C)[C@@H]2[C@@H](CC(=O)N3CCC[C@H]3CO)O[C@]3(C(=O)N(Cc4ccc(N5C(=O)c6cccc7cccc5c67)cc4)c4ccccc43)[C@H]2C)cc1 as well?
A: no (0)

Q: Would you mind doing C=CCOC(=O)[C@@H]1[C@H]2C(=O)O[C@H](c3ccccc3)[C@H](c3ccccc3)N2[C@H](c2ccc(OCCOC(=O)[C@H]3C[C@H]4C(=O)N[C@@H](CCCCN(C)C)C(=O)N4[C@H]3c3cccc(OCCO)c3)cc2)[C@@]12C(=O)Nc1ccc(I)cc12 as well?
A: no (0)

Q: Would you mind doing COc1ccccc1CN1C(=O)c2ccccc2[C@@H](C(=O)NC(C)C)[C@@H]1c1ccc(CO)cc1 as well?
A: no (0)

Q: Would you mind doing CCCC[C@@H]1C[C@H]1[C@@H](NC(=O)c1ccccc1)c1ccc(Cl)cc1 as well?
A: yes (1)

Q: Would you mind doing COC(=O)[C@@]1(Cc2ccccc2)[C@H]2c3cc(C(=O)N4CCCC4)[nH]c3C[C@H]2CN1C(=O)c1ccccc1 as well?
A: yes (1)

Q: Would you mind doing C=CCN1C(=O)[C@]2(CC=C)N=C(c3ccc(OCCCO)cc3)O[C@@H]2c2ccccc21 as well?
A: yes (1)

Q: Would you mind doing O=C1O[C@@H](c2ccccc2)[C@@H](c2ccccc2)N2[C@@H](c3ccccc3OCCO)[C@]3(C(=O)Nc4ccccc43)[C@@H](C(=O)NC[C@H](O)c3ccccc3)[C@H]12 as well?
A: yes (1)

Q: Would you mind doing C=CCN1C(=O)[C@@]2(O[C@@H](CCn3cc([C@H](O)c4ccccc4)nn3)[C@H]([Si](C)(C)c3ccc(OC)cc3)[C@H]2C)c2ccccc21 as well?
A: no (0)

Q: Would you mind doing O=C1OCC=C[C@H]2OC34C=CCN(Cn5nnc6ccccc65)C(=O)[C@H]3N(CCCCCCO)C(=O)[C@@H]4[C@@H]12 (stereo partly specified) as well?
A: no (0)

Q: Would you mind doing Cc1ccc(S[C@]2(C(=O)NC(C)C)CC(=O)N(C3Cc4ccccc4C3)[C@@H]2c2ccc(CO)cc2I)cc1 as well?
A: no (0)

Q: Would you mind doing CCOC(=O)[C@H]1C/C=C/C[C@H](C(=O)OCC)C(=O)O[C@H]2[C@@H](OC)O[C@H](CO)[C@@H](OC(=O)CCc3ccccc3)[C@@H]2OC1=O as well?
A: yes (1)

Q: Would you mind doing COCCOC(=O)N1C(=O)[C@@]2(c3cc(C#CCNC(N)=O)ccc31)[C@H](C(=O)N1CCCCCCC1)[C@H]1C(=O)O[C@H](c3ccccc3)[C@H](c3ccccc3)N1[C@@H]2c1ccc(O)cc1 as well?
A: no (0)

Q: Would you mind doing CC(C)(C)OC(=O)CC[C@@]1(C(=O)O)N=C(c2ccc(OCCCO)cc2)O[C@@H]1c1ccccc1CN=[N+]=[N-] as well?
A: yes (1)

Q: Would you mind doing CCCCC(CC)C(O)C1C=CC2C(=O)N(c3ccccc3)C(=O)C2N1Nc1ccc([N+](=O)[O-])cc1 (stereo unspecified) as well?
A: no (0)

Q: Would you mind doing COc1cc2c(cc1OC)CN(C(=O)[C@@H]1[C@H]3C(=O)O[C@H](c4ccccc4)[C@H](c4ccccc4)N3[C@H](c3ccccc3OCCO)[C@@]13C(=O)Nc1ccc(C#CC4(O)CCCCCC4)cc13)CC2 as well?
A: yes (1)

Q: Would you mind doing CC(C)C(O)C1C=CC2C(=O)N(C)C(=O)C2N1Nc1ccccc1 (stereo unspecified) as well?
A: no (0)

Q: Would you mind doing Cc1ccc(S[C@]2(C(=O)NC(C)C)CC(=O)N(Cc3ccccc3C(F)(F)F)[C@@H]2c2ccc(CO)cc2I)cc1 as well?
A: no (0)

Q: Would you mind doing C[C@]1(C(=O)O)c2ccccc2C(=O)N(Cc2ccccc2)[C@H]1c1ccc(CO)cc1 as well?
A: yes (1)

Q: Would you mind doing C=C(C(=O)CC[C@H](OC(C)=O)c1cccc(OCCO)c1)C(C)C as well?
A: no (0)

Q: Would you mind doing CC(C)c1ccc(NN2C(C(O)c3ccco3)C=CC3C(=O)N(c4ccccc4)C(=O)C32)cc1 (stereo unspecified) as well?
A: yes (1)

Q: Would you mind doing COC(=O)[C@@]1(Cc2ccc(F)cc2)[C@H]2c3cc(C(=O)N4CCCC4)n(CCF)c3C[C@H]2CN1C(=O)c1ccccc1 as well?
A: yes (1)

Q: Would you mind doing C#CCNC(=O)[C@H](Cc1ccccc1)NC(=O)[C@@H](N=[N+]=[N-])C(C)C as well?
A: no (0)

Q: Would you mind doing O=c1cccc(-c2cccc(Cl)c2)o1 as well?
A: no (0)

Q: Would you mind doing C=C[C@@H](COC(C)=O)NS(=O)(=O)c1ccc(Br)cc1 as well?
A: no (0)

Q: Would you mind doing O=C1O[C@@H](c2ccccc2)[C@@H](c2ccccc2)N2[C@@H](c3ccccc3OCCO)[C@]3(C(=O)Nc4ccc(C#CC5=CCCCC5)cc43)[C@@H](C(=O)NC[C@H](O)c3ccccc3)[C@H]12 as well?
A: yes (1)

* * *

- Test system: Lefty1
- method_description: Lefty1 binders on small-molecule microarrays, primary screen, biochemical, small-molecule microarray, 635/667 nm fluorescence (AID 1139)
- condition_set: small-molecule microarray binding, fluorescence 635/667; higher = more signal
readout_label: composite z-score
# respond with the number and nothing more

Q: Fill blank: measured composite z-score of the molecule CC(C)CNC(=O)[C@@H]1c2ccccc2C(=O)N(Cc2cc(F)cc(C(F)(F)F)c2)[C@H]1c1ccc(CO)cc1 is ____.
A: -0.0543

Q: Would you mind doing C=CCN1C(=O)[C@@]2(O[C@@H](CCn3cc([C@H](O)c4ccccc4)nn3)[C@H]([Si](C)(C)c3ccc(OC)cc3)[C@H]2C)c2ccccc21 as well?
A: 1.2

Q: Would you mind doing Cc1ccc(F)cc1S(=O)(=O)N[C@@H]1CCN(Cc2ccc(OC(C)C)cc2)C1 as well?
A: -0.177

Q: Would you mind doing COCCOC(=O)N1C(=O)[C@@]2(c3cc(C#CC4(O)CCCCCC4)ccc31)[C@H](c1ccccc1OCCO)N1[C@H](c3ccccc3)[C@H](c3ccccc3)OC(=O)[C@H]1[C@@H]2C(N)=O as well?
A: 1.56

Q: Would you mind doing C=C(COC)/C(=C/C[C@@H](OC(=O)c1ccncc1)c1ccc(OCCO)cc1)c1cnc2ccccc2c1 as well?
A: 1.49

Q: Would you mind doing NC(=O)NCC#Cc1ccc2c(c1)[C@]1(C(=O)N2)[C@H](C(=O)O)[C@H]2C(=O)O[C@H](c3ccccc3)[C@H](c3ccccc3)N2[C@@H]1c1ccccc1OCCO as well?
A: 1.2

Q: Would you mind doing COc1ccc(NN2C(C(O)c3ccco3)C=CC3C(=O)N(C4CCCCC4)C(=O)C32)cc1 (configuration not stated) as well?
A: 0.655

* * *

- method_description: small-molecule binders of probe aInhba, primary screen, biochemical, small-molecule microarray, 635/667 nm fluorescence (AID 1148);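 also: score merges 667nm spot fluorescence with signal-to-noise for antibody binding to printed compounds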
- condition_set: higher = more signal
readout_label: composite z-score
# respond with the number and nothing more

Q: Fill blank: measured composite z-score of the compound CCOC(=O)C1=CC[C@@H](c2ccccc2C(F)(F)F)N(S(=O)(=O)c2ccc(C)cc2)C1 is ____.
A: 0.693

Q: Would you mind doing CCOC(=O)C[C@H]1[C@H](OC(=O)c2ccc(-c3ccccc3)cc2)[C@@H](NC(=O)c2ccc3ccccc3c2)c2cc(OCCCO)ccc2N1C(=O)c1ccc2ccccc2n1 as well?
A: 0.106

Q: Would you mind doing COc1ccc(NC(=O)O[C@H]2[C@H](OC(=O)Nc3ccc4c(c3)OCO4)[C@@H](OC(=O)Nc3ccc4c(c3)OCO4)[C@@H](OC)O[C@@H]2CO)cc1 as well?
A: 0.277

Q: Would you mind doing COc1c(C)cc(-c2cc3c(c(Cc4ccccc4)n2)[Si](C(C)C)(C(C)C)OC3)cc1C as well?
A: -0.128

Q: Would you mind doing COC(=O)[C@@]1(Cc2ccccc2)[C@H]2c3cc(C(=O)N4CCCC4)n(Cc4ccsc4Br)c3C[C@H]2CN1C(=O)c1ccccc1 as well?
A: 0.407

Q: Would you mind doing COc1ccc([Si](C)(C)[C@@H]2[C@@H](CC(=O)N3CCC[C@H]3CO)O[C@]3(C(=O)N(Cc4ccc(N5C(=O)c6cccc7cccc5c67)cc4)c4ccccc43)[C@H]2C)cc1 as well?
A: 0.0184

Q: Would you mind doing O=C(O)[C@H]1C[C@H]2C(=O)N3CCC[C@H]3C(=O)N2[C@H]1c1cccc(OCCO)c1 as well?
A: -0.154

Q: Would you mind doing C=CC[C@@]1(C(=O)N2CCCCC2)N=C(c2ccc(OCCCO)cc2)O[C@@H]1c1ccccc1 as well?
A: 0.411

Q: Would you mind doing CN(C)C(=O)[C@@]1(Cc2ccccc2N=[N+]=[N-])COC(c2ccc(OCCCO)cc2)=N1 as well?
A: -0.0171

Q: Would you mind doing C[C@H]1ON(c2ccc(C(=O)OC(C)(C)C)cc2)[C@@H](c2ccc(O)cc2)[C@@H]1C(=O)N1C(=O)OC[C@@H]1c1ccccc1 as well?
A: -0.114

Q: Would you mind doing CC(C)(C)OC(=O)CC[C@]1(C(=O)O)N=C(c2ccc(OCCCO)cc2)O[C@H]1c1ccccc1CN=[N+]=[N-] as well?
A: 0.0074

Q: Would you mind doing O=C(CS)NCCCCCCNC(=O)[C@@H]1C[C@@H]2C(=O)N3CCC[C@H]3C(=O)N2[C@@H]1c1cccc(OCCO)c1 as well?
A: -0.128

Q: Would you mind doing C=C(CCCC)C(=O)CC[C@@H](OC(=O)c1cccnc1)c1ccccc1OCCO as well?
A: -0.128

Q: Would you mind doing CC(C)(C)OC(=O)CC[C@@]1(C(=O)O)N=C(c2ccc(OCCCO)cc2)O[C@@H]1c1ccccc1CN=[N+]=[N-] as well?
A: 0.239

Q: Would you mind doing C=CC[C@]12N=C(c3ccc(OCCCO)cc3)O[C@H]1c1ccccc1N(C)C2=O as well?
A: 0.435

Q: Would you mind doing Cc1ccc(F)cc1S(=O)(=O)N[C@@H]1CCN(Cc2ccc(Oc3ccccc3)cc2)C1 as well?
A: -0.0403

Q: Would you mind doing [N-]=[N+]=NCc1ccccc1[C@H]1OC(c2ccc(OCCCO)cc2)=N[C@@]1(CCS(=O)(=O)c1ccccc1)C(N)=O as well?
A: 0.182

Q: Would you mind doing C[C@]12C(=O)N(CCCCCCO)[C@@H]3C(=O)N(c4ccc(Cl)cc4)CC=CC31O[C@@H]1/C=C\CCCOC(=O)C12 (stereo partly drawn) as well?
A: -0.104

Q: Would you mind doing C=C(C(=O)CC[C@H](OC(=O)c1cccnc1)c1ccc(CO)o1)C(C)C as well?
A: 0.228

Q: Would you mind doing Cc1ccc(S[C@]2(C(=O)NCC(F)(F)F)CC(=O)N(Cc3ccccc3)[C@@H]2c2ccc(CO)cc2)cc1 as well?
A: 0.0171

Q: Would you mind doing C=CC1c2cc(O)c(OC)cc2CCN1Cc1sc2ccccc2c1Cl (stereo not drawn) as well?
A: -0.295

Q: Would you mind doing CN(C)CCCNC(=O)[C@@]1(c2ccc([N+](=O)[O-])cc2)CC(=O)N(CC23CC4CC(CC(C4)C2)C3)[C@@H]1c1ccc(CO)cc1 as well?
A: 0.641

Q: Would you mind doing C=C(/C(=C/C[C@@H](OC(=O)c1ccncc1)c1ccc(OCCO)cc1)c1cc(C(=O)OC)ccc1OC)C(C)C as well?
A: -0.271
